- System: A498
- Method summary: NCI tumour cell line growth inhibition, 48 h
Calls of active or inactive are those of the source. Cut-off read from the data, not from the text of the source: active = GI50 up to about 1.1 µM and inactive = higher.
Readout: GI50

Below, each entry is followed by its recorded GI50 result.
# Compound, Observed
records = [
    ("CCOC(=O)C1=C(O)C(=O)c2c(OC)ccc(OC)c2C1=O", "> 100 µM (inactive)"),
    ("O=C(Cc1nc2ccccc2s1)Nc1ccc(Cl)cc1", "> 100 µM (inactive)"),
    ("COC1(OC)CCc2c(sc3ncnc(Nc4cccc(Br)c4)c23)C1", "> 100 µM (inactive)"),
    ("NCC(O)CNCC/C=C\\C/C=C\\C/C=C\\C/C=C\\C/C=C\\C/C=C\\CCCCC/C=C\\CCNCC(O)CN (stereo not given)", "1.83 µM (inactive)"),
]

Shift focus to the following entry.
Inquiry: For the record "Cc1ccccc1Nc1cn(CCOc2ccccc2)c(=O)n(CCOc2ccccc2)c1=O" , what value of GI50 is listed for A498?
Reply text: > 100 µM (inactive)

###

- Test system: NCI-H23
- Method summary: NCI tumour cell line growth inhibition, 48 h
Activity calls are given as the source filed them. Rule as the data show it: active = GI50 up to about 1.1 µM and inactive = higher.
Readout: GI50

Below, each entry is followed by its recorded GI50 result.
# Compound, Observed
measured = [
    ("O=C1CCC2(c3ccc(Cl)cc3)Nc3ncccc3N12 (stereo not drawn)", "> 100 µM (inactive)"),
    ("CC1=C(NC(=O)/C(=N/NC(=S)NN)C2C(=O)CC(C)(C)CC2=O)C(=O)c2ccccc2C1=O", "5.06 µM (inactive)"),
    ("Cn1cc(NC(=O)c2cc(NC(=O)CCCCCCCCCC(=O)Nc3cc(C(=O)Nc4cc(C(=O)NCCC(=N)N)n(C)c4)n(C)c3)cn2C)cc1C(=O)NCCC(=N)N", "34.8 µM (inactive)"),
    ("Cc1cc(NS(=O)(=O)c2ccc(NC(=O)c3cccc4c(Nc5ccc(S(=O)(=O)Nc6cc(C)on6)cc5)c5ccccc5nc34)cc2)no1", "44.5 µM (inactive)"),
    ("O=S(=O)(N/C(=N\\O)Nc1ccc(Cl)cc1)c1ccc(S(=O)(=O)c2ccccc2)s1", "17 µM (inactive)"),
    ("CC[C@]12C=CCN3CC[C@@]4(c5cc(N=O)c(OC)cc5N(C)[C@H]4[C@@](O)(C(=O)NC(Cc4c[nH]c5ccccc45)C(=O)OC)[C@@H]1O)[C@@H]32 (stereo partly drawn)", "17.7 µM (inactive)"),
    ("CCCCCCCCCCCC(=O)C1=C(O)CC(O)CC1=O (stereo not drawn)", "> 100 µM (inactive)"),
]

Shift focus to the following entry.
Inquiry: Please report the recorded GI50 for "O=C(Cc1nc2ccccc2s1)Nc1ccc(Cl)cc1" .
Reply text: > 100 µM (inactive)

###

Listing of entries alongside the reported GI50.
- Tested on: ACHN
- Method summary: NCI tumour cell line growth inhibition, 48 h
Activity calls are given as the source filed them. No stated cut-off is given here; in the data, active = GI50 up to about 1.1 µM and inactive = higher.

Below, each entry is followed by its recorded GI50 result.
# Compound, GI50
rows = [
    ("O=C(O)c1ccc2c(c1C(=O)O)C(=O)OC2(c1ccc(O)cc1)c1ccc(O)cc1", "> 100 µM (inactive)"),
    ("Cc1ccc(S(=O)(=O)C(CC(=O)N2CCCC2)C(=O)c2ccccc2)cc1 (centres undefined)", "> 100 µM (inactive)"),
    ("CCOC(=O)C(C)c1nc2cc(F)c(N3CCOCC3)cc2[nH]c1=O (centres undefined)", "> 100 µM (inactive)"),
    ("Nc1ccc2c(c1)C(=O)c1ccc(F)cc1-2", "> 100 µM (inactive)"),
    ("C[N+](C)(C)/C=N\\c1cccc2nsnc12", "> 100 µM (inactive)"),
    ("O=c1[nH]c(=O)n(C2CC(O)C(CO)O2)cc1/C=C/Br (centres undefined)", "> 100 µM (inactive)"),
]

Inquiry: Please report the recorded GI50 for CCN(CC)CCCC(C)Nc1c(Sc2cnc3cc(Cl)ccc3c2NC(C)CCCN(CC)CC)cnc2cc(Cl)ccc12 (centres undefined) .
Reply text: 1.98 µM (inactive)

Inquiry: Please report the recorded GI50 for "CCOC(=O)/C(C#N)=C/Nc1c(C)n(C)n(-c2ccccc2)c1=O" .
Reply text: > 100 µM (inactive)

Inquiry: Please report the recorded GI50 for "Nc1cccc(-c2cc(O)c3cc4c(cc3n2)OCO4)c1" .
Reply text: 3.87 µM (inactive)

Inquiry: Please report the recorded GI50 for "CSc1c(C)c(C)nn1-c1ccccc1" .
Reply text: > 100 µM (inactive)

Inquiry: Please report the recorded GI50 for "O=C(c1ccccc1)c1ccc(OCCOc2ccc(Nc3ccccc3)cc2)cc1" .
Reply text: 24.3 µM (inactive)

Inquiry: Please report the recorded GI50 for "Cc1c(NC(=S)Nc2ccc([N+](=O)[O-])cc2)c(=O)n(-c2ccccc2)n1C" .
Reply text: > 100 µM (inactive)

Inquiry: Please report the recorded GI50 for "CCN(CC)c1ccc(C(=O)c2ccccc2C(=O)O)c(O)c1" .
Reply text: > 100 µM (inactive)

Inquiry: Please report the recorded GI50 for "O=S(=O)(O)/C(=N\c1cccc(Cc2ccccc2)c1)Nc1cccc(Cc2ccccc2)c1" .
Reply text: 17.4 µM (inactive)

###

- Tested on: KM-20L2
- Method summary: NCI tumour cell line growth inhibition, 48 h
The source made the active and inactive calls. Cut-off read from the data, not from the text of the source: active = GI50 up to about 1.1 µM and inactive = higher.
Readout: GI50

Below, each entry is followed by its recorded GI50 result.
# Compound, Observed
measured = [
    ("CCCNCCCC(NC(C)=O)C(=O)NCc1ccccc1 (stereo unspecified)", "> 100 µM (inactive)"),
    ("CC(SC(=O)Nc1ccc(/N=N/c2ccccc2)cc1)C(=O)O (stereo unspecified)", "> 100 µM (inactive)"),
    ("CC1C[C@H](OC(N)=O)C(C)CC1=O (stereo partly specified)", "> 100 µM (inactive)"),
]

Inquiry: Please report the recorded GI50 for NC(=O)CCC(NC(=O)Cc1ccccc1)C(=O)O (stereo unspecified) .
Reply text: > 2470 µM (inactive)

Inquiry: Please report the recorded GI50 for "COc1cc(CCc2ccc(OC(C)=O)cc2)cc(OC)c1OC" .
Reply text: > 100 µM (inactive)

Inquiry: Please report the recorded GI50 for "CCCCCCCCCCCCCS(=O)(=O)O" .
Reply text: > 100 µM (inactive)

###

- System: SN12C
- Method summary: NCI tumour cell line growth inhibition, 48 h
Activity calls are given as the source filed them. Cut-off read from the data, not from the text of the source: active = GI50 up to about 1.1 µM and inactive = higher.
Listing of entries alongside the reported GI50.

Below, each entry is followed by its recorded GI50 result.
# Compound, GI50
records = [
    ("Nc1ccc2c(c1)C(=O)c1ccc(F)cc1-2", "> 100 µM (inactive)"),
    ("O=C1/C(=C/c2ccco2)N=C(c2ccccc2)N1c1cc2cc(Sc3ccccc3)ccc2[nH]1", "17.4 µM (inactive)"),
    ("CC(=O)Oc1ccc2c(c1)[nH]c1c3ccc(OC(C)=O)cc3oc(=O)c21", "30.5 µM (inactive)"),
    ("N=C(N)NCCCC(NC(=O)OCCCCCCn1ccc(N)nc1=O)C(=O)O (stereo not given)", "> 100 µM (inactive)"),
    ("NCC(O)CNCC/C=C\\C/C=C\\C/C=C\\C/C=C\\C/C=C\\C/C=C\\CCCCC/C=C\\CCNCC(O)CN (stereo not given)", "1.64 µM (inactive)"),
]

Inquiry: Please report the recorded GI50 for "CCN(CC)c1ccc(C(=O)c2ccccc2C(=O)O)c(O)c1" .
Reply text: > 100 µM (inactive)

Inquiry: Please report the recorded GI50 for "Oc1cc(-c2ccccc2)nc2cc3c(cc12)OCO3" .
Reply text: 12.8 µM (inactive)

Inquiry: Please report the recorded GI50 for "CN(CCO)c1nc(N)cc(=O)[nH]1" .
Reply text: > 100 µM (inactive)

Inquiry: Please report the recorded GI50 for "COC(=O)[C@]1(NC(=O)c2ccccc2)C[C@H]1C=O" .
Reply text: > 100 µM (inactive)

Inquiry: Please report the recorded GI50 for "FC(F)(Sc1ccccn1)c1nc2ccccc2o1" .
Reply text: > 100 µM (inactive)

Inquiry: Please report the recorded GI50 for CCOc1cc(NC(C)=O)ccc1C(=O)NN1C(=O)CSC1c1ccccc1 (stereo not given) .
Reply text: > 100 µM (inactive)

Inquiry: Please report the recorded GI50 for "Brc1c(C#CCC(c2ccccc2)(c2ccccc2)c2ccccc2)ccc(C#CCC(c2ccccc2)(c2ccccc2)c2ccccc2)c1Br" .
Reply text: > 100 µM (inactive)

Inquiry: Please report the recorded GI50 for "Brc1ccccc1/C=C\C1(c2ccccc2)OCCO1" .
Reply text: 14.1 µM (inactive)

Inquiry: Please report the recorded GI50 for N#C/C(=C\c1ccccc1)C(NO)Nc1ccccc1 (stereo not given) .
Reply text: > 100 µM (inactive)

Inquiry: Please report the recorded GI50 for "CCOC(=O)CN1CCNCCN(CC(=O)OCC)CCNCC1" .
Reply text: > 100 µM (inactive)
